# PROTOCOL_TEXT: GSH-induced H2S release assessed as peak H2S level in pH 7.4 PBS buffer containing 10% THF incubated for 2 hrs at room temperature in presence of 1 mM GSH by methylene blue based UV-Vis spectrometry
# Assay type: physicochemical
# CONDITION_SET: pH 7.4, 2 h
Threshold check on Activity: at or above 40 µM gives t, strictly below gives f.

Reference set, count: 4
[[record]]
compound = "O=C(NSC(=O)c1ccc(C(F)(F)F)cc1)c1ccccc1"
answer_label = "f"

[[record]]
compound = "O=C(NSC(=O)c1ccccc1)c1ccc(F)cc1"
answer_label = "t"

[[record]]
compound = "O=C(NSC(=O)C1CCCCC1)c1ccccc1"
answer_label = "t"

[[record]]
compound = "CC(C(=O)SNC(=O)c1ccccc1)c1ccccc1 (stereo not drawn)"
answer_label = "t"


Alright, here's another compound for you.
Evaluate O=C(NSC(=O)c1ccccc1)c1ccccc1 : Activity at minimum 40 µM?
t
